- Assay Method Text: Antioxidant activity assessed as cupric ion reducing activity treated with 5% DMSO measured as ratio of sample to trolox molar extinction coefficient after 20 mins by CUPRAC assay
- Format: physicochemical

Compound	Ratio
Cc1ccc(C2N[C@H](C(=O)O)CS2)cc1 (mixture of isomers)	ND(Insoluble)
N#Cc1ccccc1C1N[C@H](C(=O)O)CS1 (mixture of isomers)	ND(Insoluble)
O=C(O)[C@@H]1CSC(c2ccc([N+](=O)[O-])cc2)N1 (mixture of isomers)	ND(Insoluble)

* * *

- Assay Method Text: Antioxidant activity assessed as cupric ion reducing activity treated with 5% DMSO measured as ratio of sample to trolox molar extinction coefficient after 20 mins by CUPRAC assay
- Assay type: physicochemical
Measured Endpoint: Ratio

Compound	Meas Value
COc1ccc(C2N[C@H](C(=O)O)CS2)cc1 (mixture of isomers)	ND(Insoluble)
O=C(O)[C@@H]1CSC(c2ccc(Cl)cc2)N1 (mixture of isomers)	ND(Insoluble)
O=C(O)[C@@H]1CSC(c2cccc(Cl)c2)N1 (mixture of isomers)	ND(Insoluble)

* * *

Answer each item with its documented pIC50.
- Assay Method Text: Antioxidant activity assessed as DPPH free radical scavenging activity treated with 5% DMSO after 50 mins
- Assay type: physicochemical
- Cond: read-out: IC50
Give bare numbers, as −log10 of the molar value.

Compound	pIC50
O=C(O)[C@@H]1CSC(c2cccc(Cl)c2Cl)N1 (mixture of isomers)	4.21
O=C(O)[C@@H]1CSC(c2c(F)cccc2F)N1 (mixture of isomers)	4.42
O=C(O)[C@@H]1CSC(c2ccccc2Br)N1 (mixture of isomers)	4.42

Consider now this further compound.
Request: Respond only with pIC50 recorded for O=C(O)[C@@H]1CSC(c2ccccc2)N1 (mixture of isomers)
Result: 4.34
